Where these numbers come from: patent US20200399389A1

Biological target: T1, HIS-tagged human CD73 (huCD73-HIS) (human, UniProt P21589 27-547)
T1 sequence: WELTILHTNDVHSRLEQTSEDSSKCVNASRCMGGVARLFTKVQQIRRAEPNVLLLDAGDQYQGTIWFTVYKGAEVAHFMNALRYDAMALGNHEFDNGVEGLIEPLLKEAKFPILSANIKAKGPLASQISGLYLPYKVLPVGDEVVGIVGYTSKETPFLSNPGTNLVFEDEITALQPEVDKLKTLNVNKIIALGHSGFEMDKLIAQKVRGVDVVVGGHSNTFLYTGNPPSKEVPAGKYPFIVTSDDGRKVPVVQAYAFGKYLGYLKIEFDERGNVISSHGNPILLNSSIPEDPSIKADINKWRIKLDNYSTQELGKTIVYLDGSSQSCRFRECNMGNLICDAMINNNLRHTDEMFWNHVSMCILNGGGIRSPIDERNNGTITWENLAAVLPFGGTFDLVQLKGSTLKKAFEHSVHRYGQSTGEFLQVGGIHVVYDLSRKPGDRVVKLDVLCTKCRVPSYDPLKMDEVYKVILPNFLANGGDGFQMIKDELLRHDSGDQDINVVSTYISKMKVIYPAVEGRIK
Assay: cell-based or functional assay
I'd be grateful if you could share measured IC50 (nM), huCD73 enzymatic assay in solution for these entries.
Answer with a number only, understood to be in nM.

Challenge: Requested read-out: IC50 (nM), huCD73 enzymatic assay in solution. Entry: 60A9-H4L1 (antibody, V domains shown) VH: EVQLVESGGGLVQPGQSLKLSCKASGYAFSSYWMNWVRQAPGKGLEWIGQIYPGDGDTYYSGSVKGRATLSADKSKNTAYLQLNNLRAEDTAVYYCAREAIYYGNYVFTYWGQGTLVTVSS VL: DIQMTQSPSLLSASLGDRVTITCKSSQSLLNSSNQKNYLAWYQQKPGQSPKLLIYFASTRDSGVPDRFSGSGSGTDFTLTISSLEPEDFATYYCQQHYSTPLTFGGGTKLEIK
Response given: 3.1

Challenge: Requested read-out: IC50 (nM), huCD73 enzymatic assay in solution. Entry: 60A9-H3L1 (antibody, V domains shown) VH: EVQLVESGGGLVQPGQSLKLSCKASGYAFSSYWMNWVRQAPGKGLEWIGQIYPGDGDTYYNPSVKGRATLSADKSKNTAYLQLNNLRAEDTAVYYCAREAIYYGNYVFTYWGQGTLVTVSS VL: DIQMTQSPSLLSASLGDRVTITCKSSQSLLNSSNQKNYLAWYQQKPGQSPKLLIYFASTRDSGVPDRFSGSGSGTDFTLTISSLEPEDFATYYCQQHYSTPLTFGGGTKLEIK
Response given: 2.94

Challenge: Requested read-out: IC50 (nM), huCD73 enzymatic assay in solution. Entry: 60A9-H2L3 (antibody, V domains shown) VH: EVQLVESGGGLVQPGGSLRLSCKASGYAFSSYWMNWVRQAPGKGLEWVGQIYPGDGDTYYNPSVKGRFTISADTSKNTLYLQMNSLRAEDTAVYYCAREAIYYGNYVFTYWGQGTLVTVSS VL: DIQMTQSPSLLSASLGDRVTITCKSSQSLLNSSNQKNYLAWYQQKPGQSPKLLVYFASTRDSGVPDRFSGSGSGTDFTLTISSLEPEDFATYYCQQHYSTPLTFGGGTKLEIK
Response given: 4.57
